- EXPERIMENTAL SYSTEM: human ether-à-go-go-related gene (hERG) potassium channel (human, UniProt Q12809);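 further: peak tail current of the secondary pulse compared with the same well before compound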
- Sequence (Q12809 whole entry, looked up): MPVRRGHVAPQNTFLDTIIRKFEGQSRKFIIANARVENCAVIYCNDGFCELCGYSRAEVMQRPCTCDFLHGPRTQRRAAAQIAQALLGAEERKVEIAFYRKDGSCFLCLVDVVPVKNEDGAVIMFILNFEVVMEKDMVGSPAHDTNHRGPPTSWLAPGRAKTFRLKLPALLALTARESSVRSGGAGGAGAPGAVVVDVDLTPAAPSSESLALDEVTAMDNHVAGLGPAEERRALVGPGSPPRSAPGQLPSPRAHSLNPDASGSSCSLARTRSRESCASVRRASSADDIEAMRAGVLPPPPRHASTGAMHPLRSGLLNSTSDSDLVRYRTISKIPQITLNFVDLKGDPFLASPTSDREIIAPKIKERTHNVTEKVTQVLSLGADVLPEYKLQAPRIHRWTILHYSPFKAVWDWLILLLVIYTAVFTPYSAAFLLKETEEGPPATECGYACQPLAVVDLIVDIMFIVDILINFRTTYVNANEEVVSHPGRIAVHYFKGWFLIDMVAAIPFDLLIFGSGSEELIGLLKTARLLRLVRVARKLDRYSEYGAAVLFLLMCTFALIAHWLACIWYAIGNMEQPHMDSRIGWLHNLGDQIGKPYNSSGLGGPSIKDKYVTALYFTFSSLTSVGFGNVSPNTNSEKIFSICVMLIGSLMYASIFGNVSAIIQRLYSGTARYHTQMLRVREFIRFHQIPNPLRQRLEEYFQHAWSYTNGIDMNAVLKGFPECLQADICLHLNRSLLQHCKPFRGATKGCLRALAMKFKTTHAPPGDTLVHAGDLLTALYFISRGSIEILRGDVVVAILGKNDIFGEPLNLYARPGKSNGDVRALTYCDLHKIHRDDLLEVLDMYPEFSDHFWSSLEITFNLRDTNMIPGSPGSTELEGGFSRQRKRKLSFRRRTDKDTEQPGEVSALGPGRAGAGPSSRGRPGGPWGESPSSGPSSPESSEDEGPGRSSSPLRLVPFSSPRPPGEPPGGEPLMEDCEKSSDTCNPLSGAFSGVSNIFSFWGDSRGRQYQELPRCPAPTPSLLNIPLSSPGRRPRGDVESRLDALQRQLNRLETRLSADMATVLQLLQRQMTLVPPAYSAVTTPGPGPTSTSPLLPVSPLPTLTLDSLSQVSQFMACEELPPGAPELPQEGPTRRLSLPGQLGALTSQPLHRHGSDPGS
- TEST: primary screen, population patch clamp on CHO cells stably expressing hERG; higher = less effect of the substance
In all, about 310,000 compounds went through this assay and about 14,000 (4.5%) showed an effect of 50% or more. The effect is printed as a negative number. Many of the other results were omitted from the sample, so strong results are more common in it than they were.
Hi there, I'd appreciate the recorded hERG current change (%, negative = inhibition) at 10uM for every entry that follows.
Only the number, expressed in %, is required.

Find hERG current change (%, negative = inhibition) at 10uM (human ether-à-go-go-related gene (hERG) potassium channel (human, UniProt Q12809)) for the entry "Cc1ccccc1C(=NCCCN(C)C)c1ccccc1C.Cl" -21.7

Find the measured hERG current change (%, negative = inhibition) at 10uM: item "COc1c(Cl)cc(Cl)cc1C(=O)Nc1ccc(CN2CCOCC2)cc1" , target or system human ether-à-go-go-related gene (hERG) potassium channel (human, UniProt Q12809). 8.37

Any idea what hERG current change (%, negative = inhibition) at 10uM came out for "O=C(CN(C(=O)CCC(=O)Nc1ccccn1)c1ccc(F)cc1)NCc1ccco1" on human ether-à-go-go-related gene (hERG) potassium channel (human, UniProt Q12809)? 14.2

Lab note: need hERG current change (%, negative = inhibition) at 10uM with human ether-à-go-go-related gene (hERG) potassium channel (human, UniProt Q12809) for entry CC1CCCN(Cc2ccc(OCc3ccccc3)cc2)C1 (stereo not drawn) , please look it up. -43.3

Could you share what hERG current change (%, negative = inhibition) at 10uM was measured for "COc1ccccc1C(=O)Nc1ccc(CN2CCCCC2)cc1" , tested on human ether-à-go-go-related gene (hERG) potassium channel (human, UniProt Q12809)? -28.4

Kindly state the measured hERG current change (%, negative = inhibition) at 10uM obtained for CCc1cccc(C)c1N(C(=O)Cn1c(=O)[nH]c2ccccc21)C(C)COC (stereo not drawn) with human ether-à-go-go-related gene (hERG) potassium channel (human, UniProt Q12809). -4.31

Request: hERG current change (%, negative = inhibition) at 10uM, test system human ether-à-go-go-related gene (hERG) potassium channel (human, UniProt Q12809), entry "O=C(CNc1cccc(C(F)(F)F)c1)Nc1cccc(S(=O)(=O)N2CCCC2)c1" -6.44

Give hERG current change (%, negative = inhibition) at 10uM (human ether-à-go-go-related gene (hERG) potassium channel (human, UniProt Q12809)) of the following molecule: "COc1ccc(Cl)cc1C(=O)Nc1ccc(CN2CCCCC2)cc1" -52

Give hERG current change (%, negative = inhibition) at 10uM (human ether-à-go-go-related gene (hERG) potassium channel (human, UniProt Q12809)) of the following molecule: "CC1CCN(CCCOc2ccc(OCc3ccccc3)cc2)CC1.O=C(O)C(=O)O" -71.4

Provide value of hERG current change (%, negative = inhibition) at 10uM for this record tested with human ether-à-go-go-related gene (hERG) potassium channel (human, UniProt Q12809): CCC(C)NS(=O)(=O)c1cccs1 (stereo not drawn) 7.86

Can you look up hERG current change (%, negative = inhibition) at 10uM on human ether-à-go-go-related gene (hERG) potassium channel (human, UniProt Q12809) for "Cc1ccc(CNC(=O)CCn2cc(-c3ccc(C)cc3)nc2-c2ccncc2)cc1" ? -45.1

Which measured hERG current change (%, negative = inhibition) at 10uM belongs to "Cc1ccc(SCC(=O)N2CCC(C(N)=O)CC2)cc1" , tested on human ether-à-go-go-related gene (hERG) potassium channel (human, UniProt Q12809)? 13.2

Lab note: need hERG current change (%, negative = inhibition) at 10uM for "COc1ccc(NC(=O)CCN2CCN(S(=O)(=O)c3ccc(OC)cc3)CC2)cc1" on human ether-à-go-go-related gene (hERG) potassium channel (human, UniProt Q12809), anyone have it? -25

For the record "O=C1NC(=O)C(CCc2ccncc2)(Cc2ccc(OCc3ccccc3)cc2)C(=O)N1" , what value of hERG current change (%, negative = inhibition) at 10uM is listed for human ether-à-go-go-related gene (hERG) potassium channel (human, UniProt Q12809)? 11.8

Find hERG current change (%, negative = inhibition) at 10uM (human ether-à-go-go-related gene (hERG) potassium channel (human, UniProt Q12809)) for the entry "COc1c(Cl)cc(Cl)cc1C(=O)Nc1ccc(CN2CCCCC2)cc1" -65.1

API: value(readout= hERG current change (%, negative = inhibition) at 10uM, system= human ether-à-go-go-related gene (hERG) potassium channel (human, UniProt Q12809), query= "O=C(CN1CCN(S(=O)(=O)c2ccccc2)CC1)Nc1cccc(C(F)(F)F)c1" ) -56.2

Given the entry "COc1ccc(S(=O)(=O)N2CCN(CCC(=O)Nc3ccc(F)cc3)CC2)cc1" , what hERG current change (%, negative = inhibition) at 10uM was observed with human ether-à-go-go-related gene (hERG) potassium channel (human, UniProt Q12809)? -18.9

Short answer please: hERG current change (%, negative = inhibition) at 10uM, human ether-à-go-go-related gene (hERG) potassium channel (human, UniProt Q12809), entry Cc1ccc2oc(C(=O)NCC(c3ccco3)N3CCCC3)c(C)c2c1 (stereo not drawn) -33.8

Give the reported hERG current change (%, negative = inhibition) at 10uM for "O=C(CCNC(=O)C1CCN(S(=O)(=O)c2ccccc2)CC1)Nc1cccc(C(F)(F)F)c1" (system: human ether-à-go-go-related gene (hERG) potassium channel (human, UniProt Q12809)). -45.1

// map "COc1ccc(N(Cc2ccccc2)N=O)cc1" to recorded hERG current change (%, negative = inhibition) at 10uM (system: human ether-à-go-go-related gene (hERG) potassium channel (human, UniProt Q12809)) -23.3

Given the entry "O=C(CN1CCN(S(=O)(=O)c2ccc(F)cc2)CC1)Nc1cccc(C(F)(F)F)c1" , what hERG current change (%, negative = inhibition) at 10uM was observed with human ether-à-go-go-related gene (hERG) potassium channel (human, UniProt Q12809)? -55.5
